Entry source: PubChem BioAssay AID248

Exercise: state measured T/C for each of the compounds provided.
# Tested on: L1210 leukemia ip in BDF1 mice, survival T/C
# assay protocol: NCI In Vivo Anticancer Drug Screen. Data for tumor model L1210 Leukemia (intraperitoneal) in B6D2F1 (BDF1) mice
# condition summary: endpoint: mean survival time; dose: 150.0 mg/kg/injection; schedule: Q01DX001 (ip); vehicle: saline; higher = longer survival
Toxic doses and inconclusive results are not listed.

# compound "C=C(C)C1(CCCCC)C(=O)NC(=S)NC1=O" ; its T/C = 102 % of control

# compound "CC(C)CNCc1cc([N+](=O)[O-])ccc1O" ; its T/C = 97 % of control

# compound CC1(C)CC(C(=O)O)C(=O)O1 (stereo not given) ; its T/C = 103 % of control

# compound "CC(C)(CNC1CCCC1)OC(=O)c1ccccc1" ; its T/C = 107 % of control

# compound Oc1cc2c(cc1O)CN1CCc3cc(O)c(O)cc3C1C2 (stereo not given) ; its T/C = 105 % of control

# compound "Cc1ccc2nc(N=C(N)N)[nH]c2c1" ; its T/C = 94 % of control

# compound "Cc1cnc(C(=O)O)c(N)n1" ; its T/C = 93 % of control

# compound "CCn1c(C)nccc1=O" ; its T/C = 100 % of control

# compound "NNc1ncnc2nc[nH]c12" ; its T/C = 102 % of control

# compound "Cn1cnc2c3cccnc3ccc21" ; its T/C = 103 % of control

# compound "CCC1(/C=C/C(C)C)C(=O)NC(=O)NC1=O" ; its T/C = 93 % of control

# compound "Cc1ccc(S(=O)(=O)OCC2(COS(=O)(=O)c3ccc(C)cc3)CCC2(COS(=O)(=O)c2ccc(C)cc2)COS(=O)(=O)c2ccc(C)cc2)cc1" ; its T/C = 96 % of control

# compound COC(=O)N1C2C=CC(=O)C(C=C2)N1C(=O)OC (stereo not given) ; its T/C = 106 % of control

# compound "OCC1(CO)CCC1(CO)CO" ; its T/C = 102 % of control

# compound CCC(C)N1C(=O)CCC1=O (stereo not given) ; its T/C = 101 % of control
